# EXPERIMENT_SUMMARY: High throughput microsomal stability assay (human liver microsomes)
# Format: in vitro ADME
# PARTICULARS: human liver microsomes, 1 uM compound, NADPH + UDPGA cofactors, 37 C
# Description: Example 49: High Throughput Microsomal Stability Assay Metabolic stability of compounds was assessed using Human, or Rat Liver Microsomal assays (Corning). […] Assay plates were analyzed using solid-state extraction coupled with quadrupole time-of-flight mass spectrometer, using Agilent QToF 6530 RapidFire 360 system, with C4 type A solid state cartridges. […] Pharmacological parameters for an analyte compound metabolism were calculated using the following equations: […]
// HLM stability lookup, one value per entry
# output: bare number, implied unit mL/min/kg

The cases that follow already have their HLM stability on record.
>>> numeric_result("CCO[C@H]1C=C[C@H](C)N2C[C@H]1n1cc(C(=O)NCc3c(F)cc(F)cc3F)c(=O)c(O)c1C2=O")
9.67
>>> numeric_result("C[C@H]1C=C[C@H](O)[C@H]2CN1C(=O)c1c(O)c(=O)c(C(=O)NCc3ccc(F)cc3F)cn12")
1.83

Read the entry "[2H][C@]1(OC)C=C[C@H](C)N2C[C@H]1n1cc(C(=O)NCc3ccc(F)cc3F)c(=O)c(O)c1C2=O" and write its reported HLM stability. 6.17

Give the measured HLM stability for "CO[C@H]1CC[C@H](C)N2C[C@H]1n1cc(C(=O)NCc3c(F)cc(F)cc3F)c(=O)c(O)c1C2=O" 3.5

Hello, please tell me recorded HLM stability for this one: "CO[C@@]1(C)CC[C@H](C)N2C[C@H]1n1cc(C(=O)NCc3c(F)cc(F)cc3F)c(=O)c(O)c1C2=O" 12

Look up HLM stability of "C[C@H]1C=C[C@H](O)[C@H]2CN1C(=O)c1c(O)c(=O)c(C(=O)NCc3c(F)cc(F)cc3F)cn12" and report it. 2.67

Note HLM stability for the molecule shown: "CO[C@@H]1C=C[C@H](C)N2C[C@H]1n1cc(C(=O)NCc3c(F)cc(F)cc3F)c(=O)c(O)c1C2=O" 2.33

Answer with the recorded HLM stability for the molecule listed here: CO[C@@]1(C)C=C[C@H](C)N2C[C@H]1n1cc(C(=O)NCc3c(F)cc(F)cc3F)c(=O)c(O)c1C2=O (single isomer, unassigned) 11.5

Read the entry "CO[C@H]1CC[C@H](C)N2C[C@H]1n1cc(C(=O)NCc3ccc(F)cc3F)c(=O)c(O)c1C2=O" and write its reported HLM stability. 2.5

Please indicate HLM stability recorded for CO[C@@H]1C[C@@H](F)[C@H](C)N2C[C@H]1n1cc(C(=O)NCc3c(F)cc(F)cc3F)c(=O)c(O)c1C2=O (single isomer, unassigned) 3.17

State, in one line, measured HLM stability of "C[C@H]1C=C[C@@H](Cl)[C@H]2CN1C(=O)c1c(O)c(=O)c(C(=O)NCc3ccc(F)cc3F)cn12" 4.33

Give a short answer stating reported HLM stability for CO[C@@H]1CC(F)(F)[C@H](C)N2C[C@H]1n1cc(C(=O)NCc3c(F)cc(F)cc3F)c(=O)c(O)c1C2=O (single isomer, unassigned) . 3.3

Note down HLM stability recorded for "CO[C@H]1C=C[C@H](C)N2C[C@H]1n1cc(C(=O)NCc3ccc(F)c(Cl)c3F)c(=O)c(O)c1C2=O" 8

Tell me its HLM stability given "CO[C@H]1C=C[C@H](C)N2C[C@H]1n1cc(C(=O)NCc3c(F)cc(F)cc3F)c(=O)c(O)c1C2=O" as the entry. 12.2

Give a short answer stating reported HLM stability for "C[C@H]1CC[C@H](O)[C@H]2CN1C(=O)c1c(O)c(=O)c(C(=O)NCc3c(F)cc(F)cc3F)cn12" . 2.5

Given "C[C@H]1CC[C@@](O)(CF)[C@H]2CN1C(=O)c1c(O)c(=O)c(C(=O)NCc3c(F)cc(F)cc3F)cn12" , respond with its HLM stability. 3.67

Reference source for all entries: patent US12421235B2
